assay: gradient 5% acetonitrile 3 min, to 50% in 2 min, to 85% in 15 min, held 3 min, 100 µL/min; details: column: Zorbax Extend-C18 2.1 x 50 mm; eluents: water / acetonitrile, 0.1% formic acid
readout-kind: RP-LC retention time (s)
Report only the number, with the unit s understood.

Example entries and their recorded answers appear below.
C=CCc1ccccc1OCC(O)CN1CCC(C)CC1 (stereo unspecified)	588
Cc1ccc(CC#N)c(-c2c(CC#N)ccc(C)c2C)c1C	1170
CC(C)C(=O)N1CCc2c(c(-c3nncn3C(C)C)nn2C)C1	639
CC(C)NCc1ccc(-c2ccccc2Cl)o1	673
Cc1cc(=O)n(CC(=O)Nc2ccc3c(c2)OCCO3)c(N2CCCC2)n1	620
CCCCSc1cc(C)nc(N)n1	698
O=S(=O)(NCc1ccccc1Cl)c1ccc2c(c1)-c1oncc1CO2	907
O=S(=O)(CCc1noc(-c2ccc3c(c2)OCO3)n1)c1ccccc1	899

Per the record, CCC(=O)NC(C)c1nc(-c2ccccc2OC)no1 (stereo unspecified) has RP-LC retention time of 665

Item: COCCCNC(=O)C1CCN(c2cncnc2N2CCOCC2)CC1 | RP-LC retention time: 550

# RP-LC retention time of COc1ccc(CCN2CC(=O)N3Cc4[nH]c5ccccc5c4C[C@H]3C2=O)cc1OC = 761

* * *

test: gradient 5% acetonitrile 3 min, to 50% in 2 min, to 85% in 15 min, held 3 min, 100 µL/min; conditions: column: Zorbax Extend-C18 2.1 x 50 mm; eluents: water / acetonitrile, 0.1% formic acid
Assign labels as follows, please: fulfilled for RP-LC retention time below 700 s; not fulfilled for RP-LC retention time equal to or exceeding 700 s.

Cn1cc(-c2cc3n(n2)CCC(=O)N3CC(=O)Nc2ccc(Cl)cc2)c2ccccc21	not fulfilled
O=C(NCCN1CCCCCC1)c1ccc2c(c1)NC(=O)C1CCCCN21 (stereo not drawn)	fulfilled
Cc1ccc(Cn2cc(-c3noc(-c4ccc(N(C)C)cc4)n3)nn2)cc1	not fulfilled

Turning now to a further record.
Input: Does the reported RP-LC retention time of Cc1cc(OCC(=O)N[C@H](C(=O)O)c2ccccc2)c2c3c(c(=O)oc2c1)CCCC3 stay below 700 s?
Output: not fulfilled

* * *

assay: gradient 5% acetonitrile 3 min, to 50% in 2 min, to 85% in 15 min, held 3 min, 100 µL/min; details: column: Zorbax Extend-C18 2.1 x 50 mm; eluents: water / acetonitrile, 0.1% formic acid
Recorded measurements of RP-LC retention time, one per entry
Field format: number, assumed s, no unit text.

Form: molecule = COc1ccc(-c2nc(-c3ccc4c(c3)nc(C)c(=O)n4C)no2)cc1OC ; RP-LC retention time = 876

Input CC1CCN(S(=O)(=O)c2cc(-c3nnc(C4CCC4)o3)co2)CC1 . Output RP-LC retention time: 999

Form: molecule = Cc1ccc(NC(=O)C2CCCN2S(=O)(=O)c2cc3c(cc2C)NC(=O)C(C)O3)cc1 (centres undefined) ; RP-LC retention time = 794

Reported RP-LC retention time ( Cc1oc2ccn(Cc3ccccc3F)c(=O)c2c1C(=O)NCc1cc(F)cc(F)c1 ) = 827

Entry CC(=O)N1CCc2cc(-c3ccc(C(=O)NCCN4CCCC4)cc3)ccc21 , RP-LC retention time reported as 607

The recorded RP-LC retention time for entry O=C(c1cccc(Br)c1)N1CCN(c2nnc3ccccn23)CC1 equals 662

Short answer for CCCCC(=O)N1CCN(c2nc3ccccc3nc2C(F)(F)F)CC1 : RP-LC retention time was 1080

In plain terms, Cc1ccc(C(=O)c2cnc3cc4c(cc3c2N2CCN(C)CC2)OCO4)cc1C has a documented RP-LC retention time of 581

RP-LC retention time measured on CCNC(=O)NC1CCN(c2ccc(C)c(C)c2)C1=O (centres undefined) = 690

* * *

assay: gradient 5% acetonitrile 3 min, to 50% in 2 min, to 85% in 15 min, held 3 min, 100 µL/min; conditions: column: Zorbax Extend-C18 2.1 x 50 mm; eluents: water / acetonitrile, 0.1% formic acid
If the reported RP-LC retention time equals or exceeds 700 s, assign Criterion met. If not, assign Criterion not met.

# count of solved cases: 6
Cc1ccccc1-c1noc(Cn2c(=O)n(CCc3ccccc3)c(=O)c3sccc32)n1	Criterion met
CC(C)N1CCn2cc(S(=O)(=O)Nc3ccccc3F)cc2C1=O	Criterion met
CCc1cc(=O)n(CC(=O)Nc2ccccc2C)c(N2CCOCC2)n1	Criterion not met
O=C(Cn1cccn1)NC1CCc2nnc(C3CC3)n2CC1 (centres undefined)	Criterion not met
Cc1ncoc1C(=O)N1CCC(c2noc(-c3cccnc3)n2)C1 (centres undefined)	Criterion not met
Cc1ccc(C)c(NC(=O)N2CCC(N3CCN(Cc4ccccc4)C(=O)C3=O)CC2)c1	Criterion met

Input: Reported RP-LC retention time reaches at least 700 s for Cc1ccc(C)c(NC(=O)c2c(C)oc3nc(C)nc(N4CCOCC4)c23)c1 ?
Output: Criterion met

Input: Does the compound COc1ccc(Cl)cc1NC(=O)Nc1ccc2c(c1)N(C)C(=O)C(C)(C)CO2 have recorded RP-LC retention time that is 700 s or more?
Output: Criterion met

Input: Decide: is the reported value of RP-LC retention time for CCc1nc(-c2cc(S(=O)(=O)N3CCC(C(=O)NC4CC4)CC3)c(C)s2)no1 equal to or greater than 700 s?
Output: Criterion met

Input: Is RP-LC retention time at least 700 s? Consider CCc1c(C)nc2nc(-c3ccccc3)nn2c1Nc1cc(OC)ccc1OC
Output: Criterion met

Input: Is RP-LC retention time at least 700 s? Consider CCC(C)NC(=O)c1ccc2c(c1)CCCN2S(=O)(=O)CC (centres undefined)
Output: Criterion met

Input: Form field: RP-LC retention time at least 700 s? Entry: Cn1nc2n(c1=O)CCC(NC(=O)c1n[nH]c3c1CC(C(C)(C)C)CC3)CC2 (centres undefined)
Output: Criterion met

Input: RP-LC retention time >= 700 s for Cc1noc([C@@H]2CN(Cc3ccc(F)cc3F)C[C@H]2CO)n1 ?
Output: Criterion not met

* * *

test: gradient 5% acetonitrile 3 min, to 50% in 2 min, to 85% in 15 min, held 3 min, 100 µL/min; details: column: Zorbax Extend-C18 2.1 x 50 mm; eluents: water / acetonitrile, 0.1% formic acid
Rule: RP-LC retention time of 700 s or more gives True; anything lower gives False.

Reference set (8 entries):
CCOC(=O)c1nc(NCCc2ccccc2Cl)c2c(C)noc2n1	True
O=C(Nc1ccccc1Cl)N1CCN(c2cc(-c3ccncc3)[nH]n2)CC1	False
Cc1nn(-c2ccccc2)c(C)c1S(=O)(=O)N1CCC(C(=O)Nc2ccc(C(C)C)cc2)CC1	True
CC(=O)Nc1ccc(-c2noc(C3CCCN(C(=O)CCc4c[nH]c5ccccc45)C3)n2)cc1 (centres undefined)	True
Cc1sc2cc(C(=O)NCCN3CCOCC3)[nH]c2c1CN1CCCCC1	False
O=C1CCCN1CCCNc1nc(C2CC2)nc2c1CCC2	False
CC1CCCC(C)N1C(=O)CSc1nnc(-c2ccc3c(c2)OCCCO3)n1C (centres undefined)	True
CCCC(=O)Nc1cccc(NC(=O)c2ccccc2Br)c1	True

Input: Hello, I need to know if COc1ccc(NC(=O)N2CCN(CCn3c(C(C)C)nc4cccnc43)CC2)c(OC)c1 has measured RP-LC retention time not below 700 s. Thanks!
Output: False

Input: Is RP-LC retention time at least 700 s? Consider CCN1c2ccc(F)cc2C(=O)NC12CCN(C(=O)c1ccc(OC)cc1)CC2
Output: True

Input: Evaluate COc1ccccc1CC(=O)N1CCC(Nc2ncnc3c2CCC3)C1 (centres undefined) : RP-LC retention time at minimum 700 s?
Output: False

Input: // inclusive: RP-LC retention time at least 700 s? input: COc1ccc(-c2cc3nn(CC(=O)N4CCc5ccccc54)c(=O)n3c(C)n2)cc1
Output: True

Input: Check the entry Cc1cc2nn(CC(=O)Nc3ccc(F)cc3Cl)c(=O)n2c(Nc2ccccc2)n1 : does RP-LC retention time equal or exceed 700 s?
Output: True

Input: Does COc1ccc(-c2ncc3c(=O)n(Cc4ccccc4Cl)c(=O)n(C)c3n2)cc1 have a reported RP-LC retention time of at least 700 s?
Output: True

Input: // inclusive: RP-LC retention time at least 700 s? input: CCN(CC)C(=O)c1cc(C)nc2c1c(=O)n(Cc1nc(-c3ccccc3)oc1C)c(=O)n2C
Output: True

Input: Given the entry CCOC(=O)C1CCN(Cc2cn3c(-c4ccc(OC)cc4)nnc3s2)CC1 , answer whether its RP-LC retention time meets or surpasses 700 s.
Output: False

* * *

assay: gradient 5% acetonitrile 3 min, to 50% in 2 min, to 85% in 15 min, held 3 min, 100 µL/min; conditions: column: Zorbax Extend-C18 2.1 x 50 mm; eluents: water / acetonitrile, 0.1% formic acid
readout-kind: RP-LC retention time (s)
Hi! Could you send only the number? It should be in s, unit omitted.

CC(=O)N1CCc2cc(N3CC(C(=O)Nc4cc(C)ccc4F)CC3=O)ccc21 (stereo not given)	743
Cc1[nH]c(C(=O)N2CCCC(C(=O)NCCN3CCOCC3)C2)c(C)c1C(=O)OC(C)C (stereo not given)	607
COc1ccc2c(CCNC(=O)c3cc(OC)c(OC)c(OC)c3)c[nH]c2c1	758

The recorded RP-LC retention time for entry CNC(=O)C1CN(C(=O)Cc2cccc(Cl)c2)CC12CCCC2 (stereo not given) equals 740

So, CCCn1cc(C2=CCN(C(=O)NCC3CCCO3)CC2)c2cccnc21 (stereo not given) ? Its RP-LC retention time was 719
